biological target: human angiotensin 2 type 1 receptor (human) (UniProt P30556); test: cell-based or functional assay
Sequence (P30556 whole entry): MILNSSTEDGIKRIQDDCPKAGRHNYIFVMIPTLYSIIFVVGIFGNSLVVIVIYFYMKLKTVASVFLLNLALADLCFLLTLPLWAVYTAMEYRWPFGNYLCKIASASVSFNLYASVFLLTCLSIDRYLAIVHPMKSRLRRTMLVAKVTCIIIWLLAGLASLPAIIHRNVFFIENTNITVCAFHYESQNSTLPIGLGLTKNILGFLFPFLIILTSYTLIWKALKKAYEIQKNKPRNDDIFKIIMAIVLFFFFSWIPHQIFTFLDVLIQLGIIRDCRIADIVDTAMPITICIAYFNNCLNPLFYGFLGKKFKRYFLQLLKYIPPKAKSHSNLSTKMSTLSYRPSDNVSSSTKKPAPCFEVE
Where no end group is shown, it is not given here.
assay metric: b-arrestin2 EC50 (µM)

{"columns": ["binder", "b-arrestin2 EC50 (µM)"],
 "data": [
  ["ERVYYHP (D-residue; C-terminal amide) [SEQ ID NO: 60 (D-Glu-Arg-Val-Tyr-Tyr-His-Pro-NH2)]", 0.34],
  ["RVYYHP (N-terminal Sar; C-terminal amide) [SEQ ID NO: 26 (Sar-Arg-Val-Tyr-Tyr-His-Pro-NH2)]", 0.075],
  ["RVYIHPRVYIHPRVYIHP (cyclic) [SEQ ID NO: 36 (Cyclo(Arg-Val-Tyr-Ile-His-Pro-Arg-Val-Tyr-Ile-His-Pro-Arg-Val-Tyr-Ile-His-Pro))]", 1.2],
  ["DRVYFHP-NH2 [SEQ ID NO: 63 (Asp-Arg-Val-Tyr-Phe-His-Pro-NH2)]", 0.53],
  ["ERVYYHP-NH2 [SEQ ID NO: 59 (Glu-Arg-Val-Tyr-Tyr-His-Pro-NH2)]", 1.4]
]}

(1) RVYIHP-NH2 [SEQ ID NO: 13 (Arg-Val-Tyr-Ile-His-Pro-NH2)]
(2) DRVYYHP (N-methyl; C-terminal amide) [SEQ ID NO: 61 (N-Me-Asp-Arg-Val-Tyr-Tyr-His-Pro-NH2)]
Prompt: Response body: label of entry with the larger b-arrestin2 EC50; valid values 1 , 2 . In your reply, give the label of the chosen option.
Response: 1

(A) RVYVHPI (N-terminal Sar; C-terminal acid) [SEQ ID NO: 11 (Sar-Arg-Val-Tyr-Val-His-Pro-Ile-OH)]
(B) RVYVHPI (N-terminal Sar; C-terminal amide) [SEQ ID NO: 12 (Sar-Arg-Val-Tyr-Val-His-Pro-Ile-NH2)]
(C) ERVYYHP (N-methyl; C-terminal amide) [SEQ ID NO: 62 (N-Me-Glu-Arg-Val-Tyr-Tyr-His-Pro-NH2)]
(D) RVYYHP (N-terminal Sar; C-terminal D-Phe) [SEQ ID NO: 28 (Sar-Arg-Val-Tyr-Tyr-His-Pro-D-Phe-OH)]
Prompt: Rank by b-arrestin2 EC50 (largest to smallest). Provide your answer as the labels ordered per the instruction.
Response: C, B, D, A

(a) RVYRHPA (N-terminal Sar; C-terminal acid) [SEQ ID NO: 24 (Sar-Arg-Val-Tyr-Arg-His-Pro-Ala-OH)]
(b) RVYFHPA (N-terminal Sar; C-terminal acid) [SEQ ID NO: 21 (Sar-Arg-Val-Tyr-Phe-His-Pro-Ala-OH)]
(c) RVYEHPI (N-terminal Sar; C-terminal acid) [SEQ ID NO: 16 (Sar-Arg-Val-Tyr-Glu-His-Pro-Ile-OH)]
(d) RVYYHPI (N-terminal Sar; C-terminal acid) [SEQ ID NO: 14 (Sar-Arg-Val-Tyr-Tyr-His-Pro-Ile-OH)]
(e) DRVYYHP (D-residue; C-terminal amide) [SEQ ID NO: 58 (D-Asp-Arg-Val-Tyr-Tyr-His-Pro-NH2)]
Prompt: Rank by b-arrestin2 EC50 (largest to smallest). Provide your answer as the labels ordered per the instruction.
Response: c, a, e, b, d
